target: Mushroom tyrosinase (Agaricus bisporus, UniProt O42713+Q00024+C7FF04+C7FF05); test: Inhibition of mushroom tyrosinase incubated for 10 mins by spectrophotometric analysis
property label: IC50 (µM)
One number for each entry, in µM.

Field: example entries. Status: answers known.
molecule: CCCCCn1nc(-c2ccccc2)n(CC(=O)NNC(=S)Nc2ccccc2C(F)(F)F)c1=O
IC50 (µM): 5.62
--
molecule: CCCCCn1nc(-c2ccccc2)n(CC(=O)NNC(=S)Nc2cc(Cl)cc(Cl)c2)c1=O
IC50 (µM): 0.17

From here, focus on the item given below.
Prompt: Could you tell me which IC50 is on file for CCCCCn1nc(-c2ccccc2)n(CC(=O)NNC(=S)Nc2ccc(F)cc2F)c1=O ?
Response: 0.019
